Origin of values: patent US10112911B2

Would you mind telling me the reported pEC50 of each entry?
- Test system: RSV (Group A, Long Strain)
- ASSAY_SUMMARY: Cytopathetic effect (CPE) protection antiviral assay, MTT readout
- Assay type: cell-based
- RUN_PARAMETERS: human respiratory syncytial virus, HEp-2, 96 h, HEp-2 cells, 0.2 MOI RSV, 4 days incubation, protection from CPE (Table 1); read-out: RSV EC50
pEC50: −log10 of the molar value.

Query block: Find the recorded pEC50 belonging to Cc1ccccc1N/C(=N/C#N)N1CCN(c2ccc3ccccc3n2)CC1C(C)C (stereo not drawn) and report it.
Result block: < 5.18

Query block: Now the molecule CC(C)C1CN(c2cnc3ccccc3n2)CCN1/C(=N\C#N)Nc1cccc(C(F)(F)F)c1 (stereo not drawn)
Result block: < 5.14

Query block: Now the molecule "Cc1ccccc1NC(=NC#N)N1CCN(c2cnc3ccccc3n2)CC1"
Result block: < 4.21
